assay: partition coefficient; assay type: physicochemical
quantityName: logP
// print number alone

Give the reported logP for this molecule. CCS(=O)(=O)c1cc2c(c(C(=O)NCC3CCCN3CC3=CCCCC3)c1)OCCCO2 (stereo not shown) [compound of the invention]
0.519

###

Target: dopaminergic D2 receptors (Homo sapiens, UniProt P14416)
Sequence (P14416 whole entry): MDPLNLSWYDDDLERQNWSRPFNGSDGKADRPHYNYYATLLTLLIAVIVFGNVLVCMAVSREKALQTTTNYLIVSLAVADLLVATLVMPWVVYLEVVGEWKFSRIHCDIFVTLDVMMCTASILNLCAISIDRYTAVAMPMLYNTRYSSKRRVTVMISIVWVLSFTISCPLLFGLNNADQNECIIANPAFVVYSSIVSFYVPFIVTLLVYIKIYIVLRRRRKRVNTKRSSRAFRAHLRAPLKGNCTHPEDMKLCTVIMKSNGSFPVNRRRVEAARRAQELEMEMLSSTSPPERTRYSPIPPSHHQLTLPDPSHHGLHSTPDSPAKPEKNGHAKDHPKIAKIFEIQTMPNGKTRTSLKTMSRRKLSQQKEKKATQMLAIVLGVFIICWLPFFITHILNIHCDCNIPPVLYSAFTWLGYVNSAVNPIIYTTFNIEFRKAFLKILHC
Test: in-vitro binding to dopaminergic D2 receptors, ligand 3H-spiperone
Conditions: read-out: IC50, D2 receptor binding
Text: (1) The compound bound very strongly in-vitro to dopaminergic D2 receptors.
quantityName: pIC50
Worth noting: pIC50 values are minus log10 of concentrations stated in mol/L.

State recorded pIC50 with dopaminergic D2 receptors (Homo sapiens, UniProt P14416), entry CCS(=O)(=O)c1cc2c(c(C(=O)NCC3CCCN3CC3=CCCCC3)c1)OCCCO2 (stereo not shown) , no comment.
8.50
